target: Arylalkylamine N-acyltransferase like 2 (AANATL2) (Drosophila melanogaster, UniProt Q9VMG0); experiment: dead-end inhibition kinetics, DTNB assay of CoA release, purified enzyme; assay type: biochemical
Sequence (Q9VMG0 whole entry): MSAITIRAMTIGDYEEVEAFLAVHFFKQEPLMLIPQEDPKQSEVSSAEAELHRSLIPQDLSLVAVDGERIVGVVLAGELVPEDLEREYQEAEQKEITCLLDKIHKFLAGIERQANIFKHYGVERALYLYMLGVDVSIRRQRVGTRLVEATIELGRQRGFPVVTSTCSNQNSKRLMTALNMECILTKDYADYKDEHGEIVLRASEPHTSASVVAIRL
pKi: −log10 of the molar value.
endpoint.label: pKi

INSERT INTO results (smiles_str, quantitative_result) VALUES
  ('CCCCCCCC/C=C\CCCCCCCC(=O)SCCNC(=O)CCNC(=O)[C@H](O)C(C)(C)COP(=O)(O)OP(=O)(O)OC[C@H]1O[C@@H](n2cnc3c(N)ncnc32)[C@H](O)[C@@H]1OP(=O)(O)O', 6.74);
